Give IC50 for every item shown.
- test_target: p-Akt1 in LNCaP cells (Homo sapiens, UniProt P31749)
- Construct: SureFire assays to detect cellular p-Akt1, p-Akt2 and p-Akt3 levels in WM115 cells (Akt2/3) and LNCaP cells (Akt1); endogenous in cells; host or cells: LNCaP (ECACC 89110211)
- Sequence (P31749 whole entry): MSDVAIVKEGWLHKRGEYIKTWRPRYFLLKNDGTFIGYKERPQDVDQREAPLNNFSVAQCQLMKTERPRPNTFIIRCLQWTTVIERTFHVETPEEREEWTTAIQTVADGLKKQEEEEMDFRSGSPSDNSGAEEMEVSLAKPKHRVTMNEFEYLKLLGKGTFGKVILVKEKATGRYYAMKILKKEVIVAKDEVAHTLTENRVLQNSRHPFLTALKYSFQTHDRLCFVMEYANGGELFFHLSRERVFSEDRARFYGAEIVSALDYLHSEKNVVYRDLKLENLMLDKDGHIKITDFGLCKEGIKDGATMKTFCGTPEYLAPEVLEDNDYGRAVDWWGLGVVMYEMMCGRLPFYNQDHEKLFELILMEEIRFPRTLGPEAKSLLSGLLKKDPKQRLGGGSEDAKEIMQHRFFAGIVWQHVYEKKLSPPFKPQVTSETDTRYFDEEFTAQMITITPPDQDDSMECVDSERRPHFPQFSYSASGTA
- assay_info: Phospho-Akt cellular SureFire assay, p-Akt1 in LNCaP cells
- Assay type: cell-based
- condition_parameters: read-out: Biological Assay 2 IC50 (nM) Akt1 LNCaP

CC(=O)N(C)[C@H]1CC[C@H](CC(=O)Nc2cnc(-c3ccc([C@H](C)N)cc3)c(-c3ccccc3)c2)CC1 | > 30000 nM
COC(=O)N(C)[C@H]1CC[C@H](CC(=O)Nc2cc(-c3ccccc3)c(-c3ccc(C4(N)CC(F)(F)C4)cc3)nn2)CC1 | > 30000 nM
CC(C)(N)c1ccc(-c2ncc(NC(=O)C[C@H]3CC[C@H](N4CCCC4=O)CC3)cc2-c2ccccc2)cc1 | > 18000 nM
CCC(=O)N(C(C)C)[C@H]1CC[C@H](CC(=O)Nc2cnc(-c3ccc([C@]4(N)C[C@](C)(O)C4)cc3)c(-c3ccccc3)c2)CC1 | 1400 nM
CC(=O)N(C)[C@H]1CC[C@H](CC(=O)Nc2cnc(-c3ccc(C4(N)CCC4)cc3)c(-c3ccccc3)c2)CC1 | 6700 nM

Please state IC50 for every compound in the list that follows.
1. CCC(=O)N(C)[C@H]1CC[C@H](CC(=O)Nc2cc(-c3ccsc3)c(-c3ccc(C4(N)CC4)c(F)c3)nn2)CC1
2. COC(=O)N(C(C)C)[C@H]1CC[C@H](CC(=O)Nc2cc(-c3ccccc3)c(-c3ccc([C@]4(N)C[C@](C)(O)C4)cc3)nn2)CC1
3. CC(=O)N(C)[C@H]1CC[C@H](CC(=O)Nc2cc(-c3ccccc3)c(-c3ccc(C4(N)CC4)cc3)nn2)CC1
4. CC(C)C(=O)N(C)[C@H]1CC[C@H](CC(=O)Nc2cc(-c3ccccc3)c(-c3ccc([C@]4(N)C[C@](C)(O)C4)cc3)cn2)CC1

1. > 30000 nM
2. 5900 nM
3. > 7500 nM
4. 4700 nM

Please state IC50 for every compound in the list that follows.
1. CN(C1CCC(CC(=O)Nc2cnc(-c3ccc(C(C)(C)N)cc3)c(-c3ccccc3)c2)CC1)C1(C)COC1 (stereo not shown)
2. CC(=O)N(C)[C@H]1CC[C@H](CC(=O)Nc2cc(-c3ccsc3)c(-c3ccc([C@]4(N)C[C@H](F)C4)cc3)nn2)CC1
3. CC(=O)N(C)[C@H]1CC[C@H](CC(=O)Nc2cc(-c3ccccc3)c(-c3ccc(C(C)(C)N)cc3)cn2)CC1
4. CCN(C(=O)OC)[C@H]1CC[C@H](CC(=O)Nc2cc(-c3ccccc3)c(-c3ccc([C@]4(N)C[C@](C)(O)C4)cc3)nn2)CC1

> 30000 nM
> 30000 nM
> 30000 nM
2000 nM
